assay: qHTS assay to identify small molecule antagonists of the androgen receptor (AR) signaling pathway - cell viability counter screen (AID 743033; further: nearly all actives have a fitted effect of over 45% in size); details: AR-bla HEK293 viability, CellTiter-Glo luminescence, 16 h; series mostly up to 58.5 µM
Records with an inconclusive call do not appear. Calls of active or inactive are those of the source. The call rests on the fitted dose curve; in most records, active means well fitted cell-killing curve with a large enough effect in the repeat runs; inconclusive means weak or mixed curves; inactive means no such curve, though single readings can be large or run the other way.
Please answer using one outcome listed in active, inactive

// below: answered compounds
[[record]]
smiles_text = "CO/N=C(/C1=NOCCO1)c1ccccc1Oc1ncnc(Oc2ccccc2Cl)c1F"
discrete_label = "active"

[[record]]
smiles_text = "COC(=O)/C=C(\\C)OP(=O)(OC)OC"
discrete_label = "inactive"


Exercise: Field: outcome | Entry: "CCCN"
Key: inactive

Exercise: Field: outcome | Entry: "O=C(Cl)c1ccccc1F"
Key: inactive

Exercise: Field: outcome | Entry: "Clc1ccc(C(c2ccc(Cl)cc2)C(Cl)Cl)cc1"
Key: inactive

Exercise: Field: outcome | Entry: "CCCCn1cc[n+](C)c1.[Cl][Fe-]([Cl])([Cl])[Cl]"
Key: inactive

Exercise: Field: outcome | Entry: "S=C=NCCc1ccccc1"
Key: inactive

---

test: qHTS assay to test for compound auto fluorescence at 460 nm (blue) in HEK293 cell free culture (AID 720681); conditions: cell-free medium, autofluorescence 405/460 nm (blue); series mostly up to 91.3 µM; further: on the % scale 0 is the no-effect control and ±100 the full control effect
The source made the active and inactive calls. Calls follow the shape of the dose curve; as a rule, active = well fitted curve in the direction sought with a large enough effect in the repeat runs; inconclusive = weak or mixed curves; inactive = flat fitted curve, though single readings scatter.
RESULT_TYPE: fluorescence, % of fluorescent control

[[record]]
compound = "COC(=O)N(OC)c1ccccc1COc1ccn(-c2ccc(Cl)cc2)n1"
result_type = "fluorescence, % of fluorescent control"
observed_value = "inactive"

[[record]]
compound = "CCCCC(CC)COC(=O)OOC(C)(C)C (configuration not stated)"
result_type = "fluorescence, % of fluorescent control"
observed_value = "inactive"

[[record]]
compound = "CCCCN(CCCC)C(=S)[S-].CCCCN(CCCC)C(=S)[S-].[Ni+2]"
result_type = "fluorescence, % of fluorescent control"
observed_value = "inactive"

[[record]]
compound = "CC1(C)[C@H](/C=C2\\CCSC2=O)[C@@H]1C(=O)OCc1coc(Cc2ccccc2)c1"
result_type = "fluorescence, % of fluorescent control"
observed_value = "inactive"

[[record]]
compound = "O=[N+]([O-])c1ccc(Cl)c(Cl)c1Cl"
result_type = "fluorescence, % of fluorescent control"
observed_value = "inactive"


So, "NC(=O)C(Cl)Cl" ? Its fluorescence, % of fluorescent control was inactive

---

experiment: qHTS assay to test for compound auto fluorescence at 535 nm (green) in HepG2 cell free culture (AID 720686); conditions: Cell-free medium, green autofluorescence 485/535 nm; series mostly up to 91.3 µM; further: on the % scale 0 is the no-effect control and ±100 the full control effect
The source made the active and inactive calls. Calls follow the shape of the dose curve; as a rule, active = well fitted curve in the direction sought with a large enough effect in the repeat runs; inconclusive = weak or mixed curves; inactive = flat fitted curve, though single readings scatter.
RESULT_TYPE: fluorescence, % of fluorescein control

Solved entries (count: 10):
[[record]]
compound = "CC(=O)[O-].CC(=O)[O-].CC(=O)[O-].[Sb+3]"
result_type = "fluorescence, % of fluorescein control"
observed_value = "0.0057% [at 3.72 µM] (inactive)"

[[record]]
compound = "CC(C)Br"
result_type = "fluorescence, % of fluorescein control"
observed_value = "inactive"

[[record]]
compound = "COP(=O)(OC)O/C(=C\\Cl)c1cc(Cl)c(Cl)cc1Cl"
result_type = "fluorescence, % of fluorescein control"
observed_value = "inactive"

[[record]]
compound = "COc1ccc(Cc2nccc3cc(OC)c(OC)cc23)cc1OC"
result_type = "fluorescence, % of fluorescein control"
observed_value = "-0.0438% [at 18.6 µM] (inactive)"

[[record]]
compound = "O=[N+]([O-])c1ccc(CCl)cc1"
result_type = "fluorescence, % of fluorescein control"
observed_value = "inactive"

[[record]]
compound = "Oc1cc(Cl)c(Cl)c(Cl)c1Cl"
result_type = "fluorescence, % of fluorescein control"
observed_value = "inactive"

[[record]]
compound = "CC(Cl)CCl (centres undefined)"
result_type = "fluorescence, % of fluorescein control"
observed_value = "inactive"

[[record]]
compound = "CCCCn1cc[n+](C)c1.[Cl][Fe-]([Cl])([Cl])[Cl]"
result_type = "fluorescence, % of fluorescein control"
observed_value = "inactive"

[[record]]
compound = "COc1c2c(cc3c1OCO3)CCN(C)C2"
result_type = "fluorescence, % of fluorescein control"
observed_value = "-0.0107% [at 18.6 µM] (inactive)"

[[record]]
compound = "COCCC#N"
result_type = "fluorescence, % of fluorescein control"
observed_value = "inactive"


So, "CSC1=N[C@@](C)(c2ccccc2)C(=O)N1Nc1ccccc1" ? Its fluorescence, % of fluorescein control was inactive

So, "Nc1ccc(N=Nc2ccccc2)cc1" ? Its fluorescence, % of fluorescein control was inactive

So, "C=CC(=O)[O][Sn]([CH2]CCC)([CH2]CCC)[CH2]CCC" ? Its fluorescence, % of fluorescein control was inactive

So, "ClC1=C(Cl)[C@]2(Cl)[C@@H]3[C@H]4C[C@H]([C@@H]5O[C@H]45)[C@@H]3[C@@]1(Cl)C2(Cl)Cl" ? Its fluorescence, % of fluorescein control was inactive

So, "Brc1cccc(-c2ccccc2)c1" ? Its fluorescence, % of fluorescein control was inactive

So, "C1=CCC=C1" ? Its fluorescence, % of fluorescein control was inactive

---

target: Glucocorticoid receptor (Homo sapiens); assay: qHTS assay to identify small molecule agonists of the glucocorticoid receptor (GR) signaling pathway (AID 720691); details: GR-bla HeLa, beta-lactamase reporter ratio, 18 h; further: on the % scale 0 is the no-effect control and ±100 the full control effect
Inconclusive results are not listed. Active and inactive are the calls of the source. Calls come from the whole dose curve; as a rule, active = well fitted activation curve with a large enough effect in the signal ratio in the repeat runs (not every such curve was filed as active); inconclusive = weak or mixed curves, or effect the other way; inactive = no such curve, though single readings can be large or run the other way; the % refers to the signal ratio.
Please answer using one outcome listed in active, inactive

// below: answered compounds
[[record]]
compound = "CSC1=N[C@@](C)(c2ccccc2)C(=O)N1Nc1ccccc1"
discrete_label = "inactive"

[[record]]
compound = "CC1CCCC1"
discrete_label = "inactive"

[[record]]
compound = "CSC(=O)c1c(C(F)F)nc(C(F)(F)F)c(C(=O)SC)c1CC(C)C"
discrete_label = "inactive"

[[record]]
compound = "Oc1cc(Cl)cc(Cl)c1"
discrete_label = "inactive"

[[record]]
compound = "CCN(CC)C(=O)N[C@@H]1C=C2c3cccc4[nH]cc(c34)C[C@@H]2N(C)C1"
discrete_label = "inactive"


Exercise: Field: outcome | Entry: "O=C(NC(=O)c1ccccc1Cl)Nc1ccc(OC(F)(F)F)cc1"
Key: inactive

Exercise: Field: outcome | Entry: "O=[N+]([O-])c1ccc(CCl)cc1"
Key: inactive

Exercise: Field: outcome | Entry: NC1CCC(CC2CCC(N)CC2)CC1 (stereo unspecified)
Key: inactive

Exercise: Field: outcome | Entry: "COP(=S)(OC)Oc1nc(Cl)c(Cl)cc1Cl"
Key: inactive

Exercise: Field: outcome | Entry: "COCCC#N"
Key: inactive

Exercise: Field: outcome | Entry: "COC(=O)c1cc(Oc2ccc(Cl)cc2Cl)ccc1[N+](=O)[O-]"
Key: inactive

Exercise: Field: outcome | Entry: "Cc1cccc(Cc2cnc[nH]2)c1C"
Key: inactive

Exercise: Field: outcome | Entry: "COc1ccc2[nH]cc(CCN(C(C)C)C(C)C)c2c1"
Key: inactive

Exercise: Field: outcome | Entry: "CCCCCCCc1ccc(O)cc1"
Key: inactive

Exercise: Field: outcome | Entry: "CN1CCc2cc(Cl)c(O)cc2[C@H]2c3ccccc3CC[C@@H]21"
Key: inactive

Exercise: Field: outcome | Entry: "O=c1c2ccccc2c(=O)c2c1cc(Cl)c1[nH]c3c([nH]c12)c(Cl)cc1c(=O)c2ccccc2c(=O)c13"
Key: inactive

Exercise: Field: outcome | Entry: "c1cc[n+]2c(c1)-c1cccc[n+]1CC2"
Key: inactive

Exercise: Field: outcome | Entry: "CN(C)CCc1c[nH]c2ccccc12"
Key: inactive

Exercise: Field: outcome | Entry: "CCN(CC)Cc1nccn1-c1ccc([N+](=O)[O-])cc1C(=O)c1ccccc1Cl"
Key: inactive

Exercise: Field: outcome | Entry: "Nc1ccccc1-c1ccccc1"
Key: inactive

Exercise: Field: outcome | Entry: CC(C)c1c(CN(C)C(C)Cc2ccccc2)n(C)n(-c2ccccc2)c1=O (stereo unspecified)
Key: inactive

Exercise: Field: outcome | Entry: "BrCCCBr"
Key: inactive

Exercise: Field: outcome | Entry: "Clc1ccc(C2(Cn3cncn3)OCCO2)c(Cl)c1"
Key: inactive

Exercise: Field: outcome | Entry: "CCOP(=O)(OCC)Oc1nc(Cl)c(Cl)cc1Cl"
Key: inactive

Exercise: Field: outcome | Entry: "c1ccc2nc(N3CCNCC3)ccc2c1"
Key: inactive

Exercise: Field: outcome | Entry: "C[C@H]1[C@H](c2ccc(Cl)cc2)SC(=O)N1C(=O)NC1CCCCC1"
Key: inactive

Exercise: Field: outcome | Entry: OCC(Br)CBr (stereo unspecified)
Key: inactive

---

experiment: qHTS assay to identify small molecule agonists of the NFkB signaling pathway - cell viability counter screen (AID 1159515); details: NFkB-bla ME-180 viability, CellTiter-Glo luminescence, 5 h; series mostly up to 61 µM; further: nearly all actives have a fitted effect of over 55% in size
Records with an inconclusive call do not appear. Activity calls are given as the source filed them. Calls come from the whole dose curve.
Please answer using one outcome listed in active, inactive

[[record]]
compound = "CC(=O)[O][Sn]([c]1ccccc1)([c]1ccccc1)[c]1ccccc1"
discrete_label = "active"

[[record]]
compound = "ClC1(Cl)C2(Cl)C3(Cl)C4(Cl)C(Cl)(Cl)C5(Cl)C3(Cl)C1(Cl)C5(Cl)C24Cl (stereo unspecified)"
discrete_label = "inactive"

[[record]]
compound = "CCNS(=O)(=O)C(F)(F)C(F)(F)C(F)(F)C(F)(F)C(F)(F)C(F)(F)C(F)(F)C(F)(F)F"
discrete_label = "inactive"

[[record]]
compound = "ClSC(Cl)(Cl)Cl"
discrete_label = "inactive"

[[record]]
compound = "O=[N+]([O-])c1cccc2cccc([N+](=O)[O-])c12"
discrete_label = "inactive"

[[record]]
compound = "O.O.O.O.O.O.O=S(=O)([O-])[O-].[Ni+2]"
discrete_label = "inactive"


Exercise: Field: outcome | Entry: "Cc1cnc2c(C(=O)O)c(Cl)ccc2c1"
Key: inactive

Exercise: Field: outcome | Entry: "CC(C)=CCN1CC[C@@]2(C)c3cc(O)ccc3C[C@@H]1[C@@H]2C"
Key: inactive

Exercise: Field: outcome | Entry: "COc1ccc2[nH]cc(CCN(C(C)C)C(C)C)c2c1"
Key: inactive

Exercise: Field: outcome | Entry: CC(C)[C@@H](Nc1ccc(C(F)(F)F)cc1Cl)C(=O)OC(C#N)c1cccc(Oc2ccccc2)c1 (stereo partly specified)
Key: inactive

Exercise: Field: outcome | Entry: CC(Cl)CCl (stereo unspecified)
Key: inactive
